Source: PubChem BioAssay (NCI)

- Tested on: CAKI-1 renal
- ASSAY_SUMMARY: NCI-60 one-dose screen, 48 h
- CONDITION: 10 µM unless noted
About 83,000 compounds went through this panel and 20% of them were active in at least one assay; those are over-represented in the sample as a whole. Activity calls are given as the source filed them. The calls were made as follows: active = growth percent below 10; inactive = the rest.
Allowed answers: class 1 (active), class 0 (inactive)

Example entries begin here.
NS(=O)(=O)c1cccc(Nc2nc(SCC(=O)c3ccc(F)cc3)nc3ccccc23)c1 ... class 0
Clc1ccc(-c2nc3c4c(-c5ccccc5)c(-c5ccccc5)n(Cc5ccccc5)c4ncn3n2)cc1 ... class 1
S=C(NCCc1ccccc1)Nc1ccc(OCc2nc3ccc(Cl)cc3[nH]2)cc1 ... class 0

Short answer needed: outcome of this test for Cc1cc(C(NC(=O)C2CC3(CC(Nc4cccc5c4C(=O)N(C4CCC(=O)NC4=O)C5=O)C3)C2)c2ccc3c(c2)OC(F)(F)O3)c(O)c2ncccc12 (centres undefined) ? class 0

What about CCOc1ccccc1[C@H]1C(C(=O)c2ccc(Cl)cc2)C2(N[C@@H]1c1ccccc1)C(=O)Nc1ccc(Br)cc12 (some centres undefined) ? class 1

Check COc1ccccc1Nc1nnc(-c2c[nH]c3ccccc23)o1 too. class 0
